target: panel of 442 kinases (Plasmodium falciparum, UniProt P61075); construct: purchased KINOMEscan; assay type: binding; settings: Compound Concentration 10 µM
Sequence (P61075 whole entry): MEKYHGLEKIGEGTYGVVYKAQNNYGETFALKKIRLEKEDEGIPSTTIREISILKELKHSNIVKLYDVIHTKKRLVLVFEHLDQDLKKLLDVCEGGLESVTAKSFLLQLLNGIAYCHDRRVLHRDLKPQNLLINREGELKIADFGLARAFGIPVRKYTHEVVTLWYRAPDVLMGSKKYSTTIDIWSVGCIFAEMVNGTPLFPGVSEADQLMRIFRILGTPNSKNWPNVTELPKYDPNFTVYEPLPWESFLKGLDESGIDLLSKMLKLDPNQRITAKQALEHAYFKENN
measure: KINOMEscan: PFPK5(P.falciparum)
Give bare numbers.

>  <compound>
CCOc1cc(C(=O)N2CCC(N3CCN(C)CC3)CC2)ccc1Nc1ncc2c(n1)N(C1CCCC1)c1ccccc1C(=O)N2C [Compound 26]

>  <measure>
KINOMEscan: PFPK5(P.falciparum)

>  <value reported>
100

$$$$
>  <compound>
COc1cc(C(=O)N2CCC(N3CCN(C)CC3)CC2)ccc1Nc1ncc2c(n1)N(C)c1ccccc1C(=O)N2C [15 (LRRK2-IN-1)]

>  <measure>
KINOMEscan: PFPK5(P.falciparum)

>  <value reported>
100

$$$$
>  <compound>
COc1cc(C(=O)N2CCC(N3CCN(C)CC3)CC2)ccc1Nc1ncc2c(n1)N1CCc3cccc(c31)C(=O)N2C [Compound 24]

>  <measure>
KINOMEscan: PFPK5(P.falciparum)

>  <value reported>
92

$$$$

Q. Request: KINOMEscan: PFPK5(P.falciparum), test system panel of 442 kinases (Plasmodium falciparum, UniProt P61075), entry COc1cc(C(=O)N2CCC(N3CCN(C)CC3)CC2)ccc1Nc1ncc2c(n1)N(C1CCCC1)c1ccccc1C(=O)N2C [Compound 25]
A. 85

###

Molecular target: panel of 442 kinases (Homo sapiens, UniProt P00519, F317I)
Construct: purchased KINOMEscan
Sequence (P00519 whole entry F317I): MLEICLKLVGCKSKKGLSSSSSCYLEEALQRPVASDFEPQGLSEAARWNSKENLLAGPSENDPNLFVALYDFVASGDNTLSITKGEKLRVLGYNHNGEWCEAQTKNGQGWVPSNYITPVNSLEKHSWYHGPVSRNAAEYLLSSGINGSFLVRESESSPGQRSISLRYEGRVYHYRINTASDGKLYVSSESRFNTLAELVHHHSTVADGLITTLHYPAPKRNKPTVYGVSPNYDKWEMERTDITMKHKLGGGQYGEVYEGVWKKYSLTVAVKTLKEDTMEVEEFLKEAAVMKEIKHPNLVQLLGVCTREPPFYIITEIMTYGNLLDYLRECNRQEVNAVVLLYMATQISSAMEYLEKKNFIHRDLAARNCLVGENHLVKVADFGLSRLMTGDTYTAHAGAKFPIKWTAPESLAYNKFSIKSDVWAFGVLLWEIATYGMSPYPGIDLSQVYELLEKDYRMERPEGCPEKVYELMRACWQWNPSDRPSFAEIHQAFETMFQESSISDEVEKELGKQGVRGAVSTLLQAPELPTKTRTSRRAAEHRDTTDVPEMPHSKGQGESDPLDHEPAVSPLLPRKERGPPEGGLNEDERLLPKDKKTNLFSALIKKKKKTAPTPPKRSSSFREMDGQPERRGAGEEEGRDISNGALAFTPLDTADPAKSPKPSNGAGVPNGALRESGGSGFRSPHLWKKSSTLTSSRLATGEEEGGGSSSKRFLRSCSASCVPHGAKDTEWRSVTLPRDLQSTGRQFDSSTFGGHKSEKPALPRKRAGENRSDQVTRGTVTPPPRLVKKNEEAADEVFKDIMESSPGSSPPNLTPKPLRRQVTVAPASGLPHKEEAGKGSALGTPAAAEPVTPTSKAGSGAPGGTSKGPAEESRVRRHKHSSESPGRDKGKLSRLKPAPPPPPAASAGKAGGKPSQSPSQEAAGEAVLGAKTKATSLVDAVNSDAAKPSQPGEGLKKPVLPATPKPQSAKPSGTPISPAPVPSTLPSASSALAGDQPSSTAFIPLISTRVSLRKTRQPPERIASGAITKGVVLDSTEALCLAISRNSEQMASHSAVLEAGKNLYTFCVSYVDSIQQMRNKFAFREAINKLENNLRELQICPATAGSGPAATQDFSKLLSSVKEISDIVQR
Assay type: binding
Parameters: unit: % Ctrl
Conditions: Compound Concentration 10 µM
From the text: We assessed the selectivity of members of this scaffold using the KINOMEscan methodology across a near comprehensive panel of 442 kinases [[18,27]].
measure: KINOMEscan: ABL1(F317I)-phosphorylated
Answers are plain numbers.

As a guide, the following entries are already answered.
>  <smi>
COc1cc(C(=O)N2CCC(N3CCN(C)CC3)CC2)ccc1Nc1ncc2c(n1)N1CCc3cccc(c31)C(=O)N2C

>  <target under test>
panel of 442 kinases (Homo sapiens, UniProt P00519, F317I)

>  <value reported>
24

$$$$
>  <smi>
CCOc1cc(C(=O)N2CCC(N3CCN(C)CC3)CC2)ccc1Nc1ncc2c(n1)N(C1CCCC1)c1ccccc1C(=O)N2C

>  <target under test>
panel of 442 kinases (Homo sapiens, UniProt P00519, F317I)

>  <value reported>
64

$$$$
>  <smi>
COc1cc(C(=O)N2CCC(N3CCN(C)CC3)CC2)ccc1Nc1ncc2c(n1)N(C1CCCC1)c1ccccc1C(=O)N2C

>  <target under test>
panel of 442 kinases (Homo sapiens, UniProt P00519, F317I)

>  <value reported>
29

$$$$

Could you now look at the following compound, please?
Q. What measured KINOMEscan: ABL1(F317I)-phosphorylated goes with `COc1cc(C(=O)N2CCC(N3CCN(C)CC3)CC2)ccc1Nc1ncc2c(n1)N(C)c1ccccc1C(=O)N2C` ?
A. 17

###

Target: panel of 442 kinases (Homo sapiens, UniProt Q99640)
Construct: purchased KINOMEscan
Sequence (Q99640 1-499): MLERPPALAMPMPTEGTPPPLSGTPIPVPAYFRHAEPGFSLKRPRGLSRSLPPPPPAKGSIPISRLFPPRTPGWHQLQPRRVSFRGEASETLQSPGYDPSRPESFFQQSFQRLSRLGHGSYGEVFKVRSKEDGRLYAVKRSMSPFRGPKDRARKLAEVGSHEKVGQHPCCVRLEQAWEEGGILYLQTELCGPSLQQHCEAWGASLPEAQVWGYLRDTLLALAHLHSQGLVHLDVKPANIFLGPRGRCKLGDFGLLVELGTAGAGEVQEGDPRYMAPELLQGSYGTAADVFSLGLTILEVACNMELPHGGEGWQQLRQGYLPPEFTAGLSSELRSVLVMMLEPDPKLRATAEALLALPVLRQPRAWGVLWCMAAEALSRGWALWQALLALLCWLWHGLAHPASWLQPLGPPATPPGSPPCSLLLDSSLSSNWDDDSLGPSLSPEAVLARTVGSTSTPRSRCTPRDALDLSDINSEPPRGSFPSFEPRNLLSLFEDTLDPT
Format: binding
Settings: Compound Concentration 10 µM
measure: KINOMEscan: PKMYT1

>  <smi>
COc1cc(C(=O)N2CCC(N3CCN(C)CC3)CC2)ccc1Nc1ncc2c(n1)N(C1CCCC1)c1ccccc1C(=O)N2C

>  <target under test>
panel of 442 kinases (Homo sapiens, UniProt Q99640)

>  <measure>
KINOMEscan: PKMYT1

>  <value reported>
100

$$$$

Report KINOMEscan: PKMYT1 for every entry below.
1. COc1cc(C(=O)N2CCC(N3CCN(C)CC3)CC2)ccc1Nc1ncc2c(n1)N1CCc3cccc(c31)C(=O)N2C
2. COc1cc(C(=O)N2CCC(N3CCN(C)CC3)CC2)ccc1Nc1ncc2c(n1)N(C)c1ccccc1C(=O)N2C
3. CCOc1cc(C(=O)N2CCC(N3CCN(C)CC3)CC2)ccc1Nc1ncc2c(n1)N(C1CCCC1)c1ccccc1C(=O)N2C

A.
[70, 80, 100]

###

molecular target: panel of 442 kinases (Homo sapiens, UniProt P29317); construct: purchased KINOMEscan; assay type: binding; conditions: Compound Concentration 10 µM
Sequence (P29317 24-976): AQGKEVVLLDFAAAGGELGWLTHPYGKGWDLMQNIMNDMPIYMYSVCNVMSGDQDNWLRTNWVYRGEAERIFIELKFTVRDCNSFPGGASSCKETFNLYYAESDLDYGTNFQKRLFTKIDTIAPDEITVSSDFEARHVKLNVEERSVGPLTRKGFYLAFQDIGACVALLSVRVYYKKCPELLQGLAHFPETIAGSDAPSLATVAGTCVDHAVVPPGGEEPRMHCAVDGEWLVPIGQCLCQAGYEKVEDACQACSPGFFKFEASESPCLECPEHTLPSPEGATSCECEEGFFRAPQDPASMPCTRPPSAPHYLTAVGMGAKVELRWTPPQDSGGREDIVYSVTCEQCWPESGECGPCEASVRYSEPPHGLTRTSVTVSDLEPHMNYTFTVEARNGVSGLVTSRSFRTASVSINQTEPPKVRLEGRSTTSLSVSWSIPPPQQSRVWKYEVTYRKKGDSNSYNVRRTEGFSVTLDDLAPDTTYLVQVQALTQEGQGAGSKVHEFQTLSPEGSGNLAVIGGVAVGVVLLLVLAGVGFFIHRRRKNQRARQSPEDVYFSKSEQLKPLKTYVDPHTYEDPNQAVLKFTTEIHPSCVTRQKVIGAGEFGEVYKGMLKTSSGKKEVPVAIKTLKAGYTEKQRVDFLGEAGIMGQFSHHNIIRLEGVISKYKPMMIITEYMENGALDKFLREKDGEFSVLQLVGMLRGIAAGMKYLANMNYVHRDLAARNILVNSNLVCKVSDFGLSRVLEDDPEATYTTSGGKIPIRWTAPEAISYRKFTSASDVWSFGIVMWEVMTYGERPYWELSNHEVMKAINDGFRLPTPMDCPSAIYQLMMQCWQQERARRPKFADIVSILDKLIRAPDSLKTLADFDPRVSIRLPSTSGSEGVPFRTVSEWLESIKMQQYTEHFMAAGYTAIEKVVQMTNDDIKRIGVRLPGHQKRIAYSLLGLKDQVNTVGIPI
measure: KINOMEscan: EPHA2

The following compounds each have a reported value; give each one's KINOMEscan: EPHA2.
1. CCOc1cc(C(=O)N2CCC(N3CCN(C)CC3)CC2)ccc1Nc1ncc2c(n1)N(C1CCCC1)c1ccccc1C(=O)N2C [Compound 26]
2. COc1cc(C(=O)N2CCC(N3CCN(C)CC3)CC2)ccc1Nc1ncc2c(n1)N(C1CCCC1)c1ccccc1C(=O)N2C [Compound 25]
3. COc1cc(C(=O)N2CCC(N3CCN(C)CC3)CC2)ccc1Nc1ncc2c(n1)N(C)c1ccccc1C(=O)N2C [15 (LRRK2-IN-1)]
4. COc1cc(C(=O)N2CCC(N3CCN(C)CC3)CC2)ccc1Nc1ncc2c(n1)N1CCc3cccc(c31)C(=O)N2C [Compound 24]

A.
100
100
92
95

###

molecular target: panel of 442 kinases (Homo sapiens); construct: purchased KINOMEscan; assay type: binding; conditions: Compound Concentration 10 µM
measure: KINOMEscan: CLK2
Give bare numbers.

The cases that follow already have their KINOMEscan: CLK2 on record.
>  <smi>
CCOc1cc(C(=O)N2CCC(N3CCN(C)CC3)CC2)ccc1Nc1ncc2c(n1)N(C1CCCC1)c1ccccc1C(=O)N2C

>  <value reported>
86

$$$$
>  <smi>
COc1cc(C(=O)N2CCC(N3CCN(C)CC3)CC2)ccc1Nc1ncc2c(n1)N(C)c1ccccc1C(=O)N2C

>  <value reported>
72

$$$$
>  <smi>
COc1cc(C(=O)N2CCC(N3CCN(C)CC3)CC2)ccc1Nc1ncc2c(n1)N1CCc3cccc(c31)C(=O)N2C

>  <value reported>
25

$$$$

Q. Checklist item: KINOMEscan: CLK2 tested on panel of 442 kinases (Homo sapiens), entry `COc1cc(C(=O)N2CCC(N3CCN(C)CC3)CC2)ccc1Nc1ncc2c(n1)N(C1CCCC1)c1ccccc1C(=O)N2C` , value?
A. 79

###

target: panel of 442 kinases (Homo sapiens, UniProt Q8TD19); construct: purchased KINOMEscan; type: binding; conditions: Compound Concentration 10 µM
Sequence (Q8TD19 whole entry): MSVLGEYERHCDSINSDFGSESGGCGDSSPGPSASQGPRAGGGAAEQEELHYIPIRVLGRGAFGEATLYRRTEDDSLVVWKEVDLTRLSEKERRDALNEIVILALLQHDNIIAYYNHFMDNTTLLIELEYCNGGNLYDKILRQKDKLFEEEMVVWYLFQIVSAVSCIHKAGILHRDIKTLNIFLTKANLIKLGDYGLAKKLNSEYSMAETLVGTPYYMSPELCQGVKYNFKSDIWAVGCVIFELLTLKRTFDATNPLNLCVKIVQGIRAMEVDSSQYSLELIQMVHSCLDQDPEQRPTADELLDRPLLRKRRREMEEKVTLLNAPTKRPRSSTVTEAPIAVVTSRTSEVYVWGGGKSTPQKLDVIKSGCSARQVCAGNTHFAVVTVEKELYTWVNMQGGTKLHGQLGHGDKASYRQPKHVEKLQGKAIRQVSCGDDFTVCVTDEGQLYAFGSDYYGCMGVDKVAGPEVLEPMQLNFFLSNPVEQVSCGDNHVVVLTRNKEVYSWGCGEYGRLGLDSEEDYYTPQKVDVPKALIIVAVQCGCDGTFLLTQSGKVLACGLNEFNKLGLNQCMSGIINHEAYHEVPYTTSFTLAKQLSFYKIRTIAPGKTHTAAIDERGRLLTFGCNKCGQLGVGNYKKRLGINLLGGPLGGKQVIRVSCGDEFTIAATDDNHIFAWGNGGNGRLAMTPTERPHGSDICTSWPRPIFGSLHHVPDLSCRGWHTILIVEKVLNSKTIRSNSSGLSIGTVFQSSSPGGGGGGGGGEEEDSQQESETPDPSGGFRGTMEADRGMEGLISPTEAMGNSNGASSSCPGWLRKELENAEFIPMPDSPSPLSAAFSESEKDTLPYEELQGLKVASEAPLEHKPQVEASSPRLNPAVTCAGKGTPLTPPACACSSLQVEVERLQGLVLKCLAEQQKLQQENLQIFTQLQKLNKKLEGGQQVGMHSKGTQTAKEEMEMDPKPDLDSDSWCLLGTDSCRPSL
measure: KINOMEscan: NEK9

>  <molecule>
COc1cc(C(=O)N2CCC(N3CCN(C)CC3)CC2)ccc1Nc1ncc2c(n1)N(C1CCCC1)c1ccccc1C(=O)N2C [Compound 25]

>  <measure>
KINOMEscan: NEK9

>  <value reported>
98

$$$$

Hi, could you look up KINOMEscan: NEK9 for each item in my list?
1. COc1cc(C(=O)N2CCC(N3CCN(C)CC3)CC2)ccc1Nc1ncc2c(n1)N1CCc3cccc(c31)C(=O)N2C [Compound 24]
2. COc1cc(C(=O)N2CCC(N3CCN(C)CC3)CC2)ccc1Nc1ncc2c(n1)N(C)c1ccccc1C(=O)N2C [15 (LRRK2-IN-1)]
3. CCOc1cc(C(=O)N2CCC(N3CCN(C)CC3)CC2)ccc1Nc1ncc2c(n1)N(C1CCCC1)c1ccccc1C(=O)N2C [Compound 26]

A.
1. 87
2. 100
3. 100

###

molecular target: panel of 442 kinases (Homo sapiens, UniProt P49336); construct: purchased KINOMEscan; type: binding; conditions: Compound Concentration 10 µM
Sequence (P49336 whole entry): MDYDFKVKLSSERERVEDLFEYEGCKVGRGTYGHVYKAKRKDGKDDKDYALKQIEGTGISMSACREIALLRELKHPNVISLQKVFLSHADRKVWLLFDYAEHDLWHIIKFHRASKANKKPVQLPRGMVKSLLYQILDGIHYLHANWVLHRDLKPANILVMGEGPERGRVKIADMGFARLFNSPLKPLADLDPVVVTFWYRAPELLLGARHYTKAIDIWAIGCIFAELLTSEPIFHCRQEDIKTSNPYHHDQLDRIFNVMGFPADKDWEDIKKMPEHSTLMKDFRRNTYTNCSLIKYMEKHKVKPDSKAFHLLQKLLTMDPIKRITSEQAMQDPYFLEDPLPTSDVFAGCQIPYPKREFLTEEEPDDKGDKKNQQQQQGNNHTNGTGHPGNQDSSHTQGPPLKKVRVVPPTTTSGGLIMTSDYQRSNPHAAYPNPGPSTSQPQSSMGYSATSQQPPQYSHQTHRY
Please provide measured KINOMEscan: CDK8 for the entries that follow.

Examples with answers:
>  <compound>
COc1cc(C(=O)N2CCC(N3CCN(C)CC3)CC2)ccc1Nc1ncc2c(n1)N1CCc3cccc(c31)C(=O)N2C [Compound 24]

>  <measure>
KINOMEscan: CDK8

>  <value reported>
91

$$$$
>  <compound>
COc1cc(C(=O)N2CCC(N3CCN(C)CC3)CC2)ccc1Nc1ncc2c(n1)N(C1CCCC1)c1ccccc1C(=O)N2C [Compound 25]

>  <measure>
KINOMEscan: CDK8

>  <value reported>
100

$$$$
>  <compound>
COc1cc(C(=O)N2CCC(N3CCN(C)CC3)CC2)ccc1Nc1ncc2c(n1)N(C)c1ccccc1C(=O)N2C [15 (LRRK2-IN-1)]

>  <measure>
KINOMEscan: CDK8

>  <value reported>
100

$$$$

Q. Which KINOMEscan: CDK8 value belongs to CCOc1cc(C(=O)N2CCC(N3CCN(C)CC3)CC2)ccc1Nc1ncc2c(n1)N(C1CCCC1)c1ccccc1C(=O)N2C [Compound 26] ?
A. 95
